Reported Minimum inhibitory concentration values for a set of sequences
- Tested on: Staphylococcus aureus
- TEST_CONTEXT: Staphylococcus aureus, triplicate 2
Please reply with the bare figure in µM and do not write the unit itself.

Solved entries:
{"BIOSEQUENCE": "GLYNFIKVLGRTVFGLYKQF [At04]", "Minimum inhibitory concentration / µM": 16}
{"BIOSEQUENCE": "GSLHGFMYKYLKNMVLNLF [Tc06]", "Minimum inhibitory concentration / µM": 16}
{"BIOSEQUENCE": "ANRLLEAYKMLLKFLGNLR [Gr02]", "Minimum inhibitory concentration / µM": 1}
{"BIOSEQUENCE": "GSLHGFMYKYLKNMVLTLF [At01]", "Minimum inhibitory concentration / µM": 16}
{"BIOSEQUENCE": "GAKLAKKQVRALGKFFSF [At03]", "Minimum inhibitory concentration / µM": 512}

Recorded Minimum inhibitory concentration of GFKLGRKLVKVFKWII [Gr01] , please. 1

Quick one: FFYNVIKIYGNMAGRISK [Cs03] 128

Quick one: FLSLIPHAINAVSTLVHHF [PS-2, reference compound] 8

Quick one: LHRLVKLVAALLRGYASKVDTH [Tc08] 2

Ref: paper PMC5775428
